# Tested on: c-Src
# protocolDescription: phosphorylation enrichment, bacterial display (enrichment ratio); higher = better substrate or ligand; peptides without Tyr show the background
Hi, to clarify the labels: 1 covers phosphorylation enrichment from 0.6 upward, 0 covers anything below 0.6.

hey, is phosphorylation enrichment for this one >= 0.6? AKRKNYAPVTM [CFAP47_Y557_A561T]
0

hey, is phosphorylation enrichment for this one >= 0.6? PVQAAYQQVVA [HBB_Y131_K133Q]
0

hey, is phosphorylation enrichment for this one >= 0.6? VMTSKYRGGGG [HBA1_Y141_L137M]
0

hey, is phosphorylation enrichment for this one >= 0.6? REDVFYTSKLW [AKR1C2_Y81_I79V]
1

hey, is phosphorylation enrichment for this one >= 0.6? GLGVTYEQALA [MAP2_Y996]
0

hey, is phosphorylation enrichment for this one >= 0.6? LTVVIYVLIGR [EPHA3_Y561]
1

---

# assaySystem: EPHB2 (UniProt P29323)
# Sequence (P29323 whole entry, looked up): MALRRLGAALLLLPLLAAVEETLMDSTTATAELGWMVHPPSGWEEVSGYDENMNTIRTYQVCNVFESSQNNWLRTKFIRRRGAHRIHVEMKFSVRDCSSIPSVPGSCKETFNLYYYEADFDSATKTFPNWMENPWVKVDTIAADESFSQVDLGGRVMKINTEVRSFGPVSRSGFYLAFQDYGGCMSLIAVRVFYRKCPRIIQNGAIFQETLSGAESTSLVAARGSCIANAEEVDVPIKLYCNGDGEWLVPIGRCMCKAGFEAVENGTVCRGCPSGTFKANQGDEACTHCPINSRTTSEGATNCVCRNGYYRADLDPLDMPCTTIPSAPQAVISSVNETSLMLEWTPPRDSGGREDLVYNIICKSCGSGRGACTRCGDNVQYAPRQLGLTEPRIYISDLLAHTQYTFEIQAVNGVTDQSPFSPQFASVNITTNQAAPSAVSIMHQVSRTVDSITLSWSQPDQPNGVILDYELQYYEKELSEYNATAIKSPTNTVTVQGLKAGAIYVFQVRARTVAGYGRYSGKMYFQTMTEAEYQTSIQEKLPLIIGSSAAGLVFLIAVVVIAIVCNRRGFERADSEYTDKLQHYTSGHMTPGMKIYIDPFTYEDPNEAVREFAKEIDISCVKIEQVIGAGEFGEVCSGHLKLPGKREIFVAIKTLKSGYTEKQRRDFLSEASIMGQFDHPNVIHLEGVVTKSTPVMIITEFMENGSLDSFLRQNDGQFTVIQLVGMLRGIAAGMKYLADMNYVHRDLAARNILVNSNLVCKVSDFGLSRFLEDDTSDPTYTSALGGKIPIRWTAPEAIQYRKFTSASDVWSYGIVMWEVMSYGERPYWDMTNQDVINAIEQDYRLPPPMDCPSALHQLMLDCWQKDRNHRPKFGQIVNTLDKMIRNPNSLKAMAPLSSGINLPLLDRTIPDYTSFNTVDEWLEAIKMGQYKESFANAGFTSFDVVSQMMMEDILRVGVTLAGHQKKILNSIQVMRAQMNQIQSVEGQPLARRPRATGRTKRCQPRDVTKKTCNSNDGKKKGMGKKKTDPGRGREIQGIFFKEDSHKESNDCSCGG
# protocolDescription: phosphorylation enrichment, bacterial display (enrichment ratio); higher = better substrate or ligand; peptides without Tyr show the background
Hi, to clarify the labels: True covers phosphorylation enrichment from 0.7 upward, False covers anything below 0.7.

hey, is phosphorylation enrichment for this one >= 0.7? QFQEKYKQMEQ [HCN4_Y531_V534M_YF]
False

hey, is phosphorylation enrichment for this one >= 0.7? IINENYDFLKV [NUP98_Y1664_G1669V_YF]
True

hey, is phosphorylation enrichment for this one >= 0.7? SLQSEYVHFGG [CDC14A_Y591_YF]
True

hey, is phosphorylation enrichment for this one >= 0.7? EGTGHYLCNAC [GATA5_Y208_D203E]
False

hey, is phosphorylation enrichment for this one >= 0.7? GHLYACDWISI [BEST1_Y227_Y227C]
True

hey, is phosphorylation enrichment for this one >= 0.7? PEADKYHLTYA [FGG_Y300_R301H]
False

hey, is phosphorylation enrichment for this one >= 0.7? REVPVYTYSEP [FAM120B_Y368_D370Y]
True

hey, is phosphorylation enrichment for this one >= 0.7? ILGRYYERGSI [PAX5_Y73_T75R]
False

hey, is phosphorylation enrichment for this one >= 0.7? QEIATYRRQLE [KRT14_Y415_L418Q]
True

hey, is phosphorylation enrichment for this one >= 0.7? GGRKGYGGFSR [RECQL5_Y478_D480G]
False

hey, is phosphorylation enrichment for this one >= 0.7? GRSTFYWPRPR [GAGE12J_Y10_YF]
False

hey, is phosphorylation enrichment for this one >= 0.7? NTEGGYCCICA [CRELD1_Y328_R329C]
False

---

Provide the recorded phosphorylation enrichment for the entries that follow.
# assaySystem: FGFR1 (UniProt P11362)
# Sequence (P11362 whole entry, looked up): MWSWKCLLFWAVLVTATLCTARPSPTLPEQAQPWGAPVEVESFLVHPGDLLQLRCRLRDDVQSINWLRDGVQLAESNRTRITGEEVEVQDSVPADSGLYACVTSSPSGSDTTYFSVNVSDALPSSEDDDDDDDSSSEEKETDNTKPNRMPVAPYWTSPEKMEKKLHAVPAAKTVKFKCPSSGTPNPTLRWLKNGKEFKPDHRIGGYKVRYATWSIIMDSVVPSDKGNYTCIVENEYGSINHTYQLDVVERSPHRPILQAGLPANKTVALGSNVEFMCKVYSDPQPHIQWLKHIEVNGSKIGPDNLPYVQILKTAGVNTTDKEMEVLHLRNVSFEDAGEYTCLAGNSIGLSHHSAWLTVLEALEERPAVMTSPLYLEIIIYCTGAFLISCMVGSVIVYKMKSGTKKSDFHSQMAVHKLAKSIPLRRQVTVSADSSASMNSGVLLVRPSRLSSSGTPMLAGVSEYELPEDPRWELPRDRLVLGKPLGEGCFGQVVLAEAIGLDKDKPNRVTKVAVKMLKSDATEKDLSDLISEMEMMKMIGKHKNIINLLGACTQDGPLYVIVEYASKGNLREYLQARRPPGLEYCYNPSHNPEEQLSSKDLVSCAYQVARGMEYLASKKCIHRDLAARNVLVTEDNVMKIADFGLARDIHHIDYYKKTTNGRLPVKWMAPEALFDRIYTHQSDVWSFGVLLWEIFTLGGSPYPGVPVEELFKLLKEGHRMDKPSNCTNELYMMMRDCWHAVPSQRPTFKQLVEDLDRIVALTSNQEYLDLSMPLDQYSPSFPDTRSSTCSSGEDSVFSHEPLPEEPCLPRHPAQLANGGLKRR
# protocolDescription: phosphorylation enrichment, bacterial display (enrichment ratio); higher = better substrate or ligand; peptides without Tyr show the background
No unit in the answer, only the number.

Output measured phosphorylation enrichment for this item: KRAIGYYSATS [FAM120A_Y327]
0.412

Output measured phosphorylation enrichment for this item: TVDASYYGGRG [ANTXR2_Y380]
0.546

Output measured phosphorylation enrichment for this item: FEGRSYSACTT [MMP9_Y241]
0.728

Output measured phosphorylation enrichment for this item: AGQEEYSAMRD [HRAS_Y64]
0.477

Output measured phosphorylation enrichment for this item: LNPLIYTLKNA [OR4C46_Y285]
0.73

Output measured phosphorylation enrichment for this item: QITQVYGFFHE [PPP2CA_Y127_D131H_YF]
0.647

Output measured phosphorylation enrichment for this item: VGEGPYLISDL [ABCC12_Y7]
0.466

Output measured phosphorylation enrichment for this item: WDLSEYSYKDP [ITGA3_Y237]
0.513

Output measured phosphorylation enrichment for this item: THLARYSDELR [APOA1_Y190_P189R]
0.437

Output measured phosphorylation enrichment for this item: IRKDLYSNNVL [ACTC1_Y296_A297S]
0.425

Output measured phosphorylation enrichment for this item: GIPIQYPIISE [NOG_Y222_W217G]
0.627

Output measured phosphorylation enrichment for this item: TYVKSYTIHYS [F5_Y2153_M2148T]
0.4

Output measured phosphorylation enrichment for this item: RGEKQYLATPL [ALOX12_Y295_A298T]
1.06

Output measured phosphorylation enrichment for this item: DFPIGYPSYLA [TBCK_Y153]
0.481

Output measured phosphorylation enrichment for this item: YGAHKYHPLPV [OAT_Y55_N54K]
0.444

---

# assaySystem: MERTK (UniProt Q12866)
# Sequence (Q12866 whole entry, looked up): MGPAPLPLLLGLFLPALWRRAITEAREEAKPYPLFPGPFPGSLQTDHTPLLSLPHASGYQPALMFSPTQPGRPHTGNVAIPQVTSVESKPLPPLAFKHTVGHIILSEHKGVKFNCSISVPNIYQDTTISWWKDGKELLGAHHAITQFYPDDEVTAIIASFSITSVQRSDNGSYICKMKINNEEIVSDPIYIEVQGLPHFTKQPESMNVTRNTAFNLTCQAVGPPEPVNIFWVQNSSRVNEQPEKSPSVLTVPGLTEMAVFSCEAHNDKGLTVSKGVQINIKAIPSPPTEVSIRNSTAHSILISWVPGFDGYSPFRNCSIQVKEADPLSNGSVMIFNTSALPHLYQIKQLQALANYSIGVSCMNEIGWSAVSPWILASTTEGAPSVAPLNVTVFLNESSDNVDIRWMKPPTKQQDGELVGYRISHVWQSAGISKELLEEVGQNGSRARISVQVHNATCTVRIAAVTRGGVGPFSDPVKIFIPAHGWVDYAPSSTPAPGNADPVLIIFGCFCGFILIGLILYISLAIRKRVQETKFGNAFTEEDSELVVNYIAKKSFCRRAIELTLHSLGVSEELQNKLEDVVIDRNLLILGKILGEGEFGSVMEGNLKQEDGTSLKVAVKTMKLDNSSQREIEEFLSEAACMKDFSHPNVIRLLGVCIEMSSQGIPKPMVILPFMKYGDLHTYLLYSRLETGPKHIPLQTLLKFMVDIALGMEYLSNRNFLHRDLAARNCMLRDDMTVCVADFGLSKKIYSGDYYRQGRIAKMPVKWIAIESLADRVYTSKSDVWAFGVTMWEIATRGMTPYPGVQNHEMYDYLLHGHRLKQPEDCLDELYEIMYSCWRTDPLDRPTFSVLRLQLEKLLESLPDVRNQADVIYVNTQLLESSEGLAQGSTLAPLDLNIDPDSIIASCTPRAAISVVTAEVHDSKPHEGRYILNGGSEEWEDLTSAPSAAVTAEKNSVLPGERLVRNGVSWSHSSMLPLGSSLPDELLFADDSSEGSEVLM
# protocolDescription: phosphorylation enrichment, bacterial display (enrichment ratio); higher = better substrate or ligand; peptides without Tyr show the background
readoutKind: phosphorylation enrichment

Output measured phosphorylation enrichment for this item: QRIFQYIQSRF [DYRK1B_Y273_YF]
0.728

Output measured phosphorylation enrichment for this item: AFDNLYYWDQD [ERBB2_Y1221]
7.32

Output measured phosphorylation enrichment for this item: ENAGYYFRVSA
0.347

Output measured phosphorylation enrichment for this item: HIAKVYRRDNP [HARS1_Y156]
0.734

Output measured phosphorylation enrichment for this item: PVVKLYATEGR [RP1_Y199_D202E]
0.574

Output measured phosphorylation enrichment for this item: KKFPDYIQSAM [SGMS2_Y59_I62S_YF]
0.364

Output measured phosphorylation enrichment for this item: NVDGKYSFLKV [GRM3_Y478_G475D_YF]
0.508

Output measured phosphorylation enrichment for this item: LNPLIYTLKNA [OR4C46_Y285]
0.463

---

# assaySystem: SHP2-C SH2;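 note: peptide library displayed on the E. coli surface as eCPX fusions, selected cells deep-sequenced, score is each peptide's frequency after selection divided by its frequency in the input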
# protocolDescription: SH2 binding enrichment of the phosphorylated peptide, bacterial display (enrichment ratio); higher = better substrate or ligand; peptides without Tyr show the background
readoutKind: SH2 binding enrichment
No unit in the answer, only the number.

Output measured SH2 binding enrichment for this item: LARDMHDKEYY [MET_Y1230_Y1230H]
0.962

Output measured SH2 binding enrichment for this item: SVTCTNSPALN [TP53_Y126_Y126N]
0.65

Output measured SH2 binding enrichment for this item: KNKKDYFDMFE [SLC26A3_Y526_YF]
1.01

Output measured SH2 binding enrichment for this item: EVTLTYATGIK [NFKB1_Y485_T489I]
0.646

Output measured SH2 binding enrichment for this item: EYLHKYKGFKI [SYNE1_Y6953_Q6951H]
0.63

Output measured SH2 binding enrichment for this item: ENRKFYMDLKE [PURA_Y156_YF]
0.558

Output measured SH2 binding enrichment for this item: EELLRYAIVTP [POC5_Y37_H36R]
14

Output measured SH2 binding enrichment for this item: QFFQGYFNNNF [ZNF236_Y644_S643G]
1.51

Output measured SH2 binding enrichment for this item: VGEGPYLISDL [ABCC12_Y7]
0.663

Output measured SH2 binding enrichment for this item: TGILLHGLASR [QARS1_Y57_Y57H]
0.801

Output measured SH2 binding enrichment for this item: PSELFYSKIGP [SMG1_Y2254_YF]
2.31

Output measured SH2 binding enrichment for this item: VTPVMYTYDEY [COL10A1_Y623_G618V]
0.685

Output measured SH2 binding enrichment for this item: GRQGIYKENER [GPR143_Y231_T232K]
0.427

Output measured SH2 binding enrichment for this item: LFFFSYLLKNH [PTEN_Y180_V175L_YF]
0.696

---

# assaySystem: Fes (UniProt P07332)
# Sequence (P07332 whole entry, looked up): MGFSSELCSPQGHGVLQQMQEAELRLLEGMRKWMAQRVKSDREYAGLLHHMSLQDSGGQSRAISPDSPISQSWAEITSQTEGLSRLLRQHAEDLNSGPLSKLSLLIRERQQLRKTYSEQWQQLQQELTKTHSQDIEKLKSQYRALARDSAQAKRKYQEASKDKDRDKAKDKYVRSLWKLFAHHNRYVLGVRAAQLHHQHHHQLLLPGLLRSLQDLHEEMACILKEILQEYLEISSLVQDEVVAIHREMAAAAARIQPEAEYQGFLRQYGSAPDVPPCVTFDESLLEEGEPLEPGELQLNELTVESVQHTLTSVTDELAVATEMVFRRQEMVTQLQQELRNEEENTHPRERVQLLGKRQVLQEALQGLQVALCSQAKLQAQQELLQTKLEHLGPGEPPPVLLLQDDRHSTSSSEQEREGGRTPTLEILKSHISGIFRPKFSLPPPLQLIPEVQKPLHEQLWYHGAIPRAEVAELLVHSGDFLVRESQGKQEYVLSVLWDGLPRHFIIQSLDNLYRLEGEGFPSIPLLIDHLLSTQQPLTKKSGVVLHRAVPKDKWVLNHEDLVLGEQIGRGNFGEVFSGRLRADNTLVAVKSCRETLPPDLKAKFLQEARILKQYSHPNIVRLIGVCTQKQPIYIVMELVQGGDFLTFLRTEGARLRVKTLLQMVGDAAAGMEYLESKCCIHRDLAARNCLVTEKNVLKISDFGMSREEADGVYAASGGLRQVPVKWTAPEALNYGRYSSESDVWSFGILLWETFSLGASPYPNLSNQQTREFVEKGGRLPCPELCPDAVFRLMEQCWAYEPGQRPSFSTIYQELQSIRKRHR
# protocolDescription: phosphorylation enrichment, bacterial display (enrichment ratio); higher = better substrate or ligand; peptides without Tyr show the background
Provide the recorded phosphorylation enrichment for the entries that follow.
No unit in the answer, only the number.

Output measured phosphorylation enrichment for this item: VMTVDYSKTVV [SETD2_Y770]
0.749

Output measured phosphorylation enrichment for this item: CTTIFYNFMCN [TP53_Y234_H233Y_YF]
1.42

Output measured phosphorylation enrichment for this item: MSGDVYSTDFF [NTRK2_Y702_R699G_YF]
1.06

Output measured phosphorylation enrichment for this item: KTGDFYDLFGG [PTPN11_Y63_N58K_YF]
0.879

---

# System: c-Src
# protocolDescription: phosphorylation enrichment, bacterial display (enrichment ratio); higher = better substrate or ligand; peptides without Tyr show the background
Hi, to clarify the labels: criterion met covers phosphorylation enrichment from 0.5 upward, criterion not met covers anything below 0.5.

hey, is phosphorylation enrichment for this one >= 0.5? TFHNTYHSHMR [IL1RAPL1_Y615_Q618H]
criterion met

hey, is phosphorylation enrichment for this one >= 0.5? SQQTFCRVSNM [ABCD1_Y181_Y181C_YF]
criterion not met

hey, is phosphorylation enrichment for this one >= 0.5? VVHSSYDEIEG [SEC24A_Y263]
criterion not met

hey, is phosphorylation enrichment for this one >= 0.5? FFSSEYHFVGG [CTSC_Y345_YF]
criterion met

hey, is phosphorylation enrichment for this one >= 0.5? LNEAVYTKMMT [G6PD_Y401_P396L]
criterion met

hey, is phosphorylation enrichment for this one >= 0.5? NNFGNYNNQSS [HNRNPA1_Y318_D314N]
criterion not met

hey, is phosphorylation enrichment for this one >= 0.5? LDFPEYNGVDR [CASQ1_Y43_D44N]
criterion met

hey, is phosphorylation enrichment for this one >= 0.5? GHRPVYSEDEQ [CHST6_Y362_Y358H]
criterion not met

hey, is phosphorylation enrichment for this one >= 0.5? DVLEFCNSKKT [PAK1_Y131_Y131C]
criterion met

hey, is phosphorylation enrichment for this one >= 0.5? EWQQTYTYDSG [JUP_Y20]
criterion met

hey, is phosphorylation enrichment for this one >= 0.5? LIQRNYKLTAQ [ALPK2_Y1975_A1978T]
criterion met

hey, is phosphorylation enrichment for this one >= 0.5? YSPCDYQPCLA [TNS1_Y798_Y796C]
criterion met

hey, is phosphorylation enrichment for this one >= 0.5? LIHLHYIRKDF [BBS4_Y43_YF]
criterion met

hey, is phosphorylation enrichment for this one >= 0.5? QDEHGYISRCF [HSPB1_Y133]
criterion not met

hey, is phosphorylation enrichment for this one >= 0.5? TRSYDYMEGGD [FGF7_Y58]
criterion not met

hey, is phosphorylation enrichment for this one >= 0.5? ENELTYFCFKK [CD59_Y86_C89Y_YF]
criterion met

hey, is phosphorylation enrichment for this one >= 0.5? PLRANYLIARV [HLCS_Y635_D634N]
criterion met

hey, is phosphorylation enrichment for this one >= 0.5? KDIENYIQDGK [RAD50_Y964]
criterion not met

hey, is phosphorylation enrichment for this one >= 0.5? AFDNLYYWDQD [ERBB2_Y1221]
criterion met

hey, is phosphorylation enrichment for this one >= 0.5? HEPKGYNANFC [TGFB2_Y341]
criterion met

hey, is phosphorylation enrichment for this one >= 0.5? YGMQLYQNYMH [GRB14_Y347]
criterion met

Data origin, for the record: the supplement of paper PMC10065799
